Target: T1, Fab^H (Herceptin Fab scaffold with wt human kappa Lc; Lc aa 123-127 EQLKS)
T1 construct: also called Hkappa
Assay: SPR (preliminary results), Protein G variant against Fab scaffold
READOUT NAME: pKd
Units for pKd: none; it is -log10 of a concentration expressed in mol/L.

q: Consider the binder Protein G F (designed binder, also called pGF; F 38YAFGNG43) TPAVTTYKLVINGRTLSGYTTTTAVDAATAEKVFKQYAFGNGVDGEWTYDDATKTFTVTEKPEKL and give its measured pKd.
a: 8.52
